protocol_summary: Pharmacokinetics in mice after single oral dosing (blood/plasma and liver exposure)
Assay type: in vivo, mice (C57/bl6/J)
condition_info: 20 mg/kg single oral dose, time point 4 h
measured_metric: liver exposure

In the examples that follow, each entry is paired with its recorded liver exposure.
Cc1ccc(S(=O)(=O)n2c(-c3cccc(-c4ccc(C(=O)O)cc4)c3)c(-c3ccsc3C#N)c3cc(F)ccc32)cc1 [5/3] : C (C: 1 μM to ≤3 μM)
N#Cc1sccc1-c1c(-c2cccc(C3CC3C(=O)O)c2)n(S(=O)(=O)c2ccc(Cl)cc2)c2ccccc12 (stereo not drawn) [30/4] : C (C: 1 μM to ≤3 μM)
Cc1ccc(S(=O)(=O)n2c(-c3cccc(-c4ccc(CN5CCN(C)CC5)cc4)c3)c(-c3ccsc3C#N)c3cc(F)ccc32)cc1 [Example 8] : D (D: >3 μM)
N#Cc1sccc1-c1c(-c2cccc(C3CC3C(=O)O)c2)n(S(=O)(=O)c2ccc(Cl)cc2)c2ccc(F)cc12 (stereo not drawn) [3/24] : C (C: 1 μM to ≤3 μM)

Next item in the queue.
The compound listed as Cc1ccc(S(=O)(=O)n2c(-c3cccc(-c4ccc(C(=O)O)cc4)c3)c(-c3ccsc3C#N)c3cc(F)ccc32)cc1C [23/2] shows liver exposure equal to D (D: >3 μM)
